test system: MM.1R cells; assay: MTT cytotoxicity assay; type: cell-based, human; details: read-out: IC50 (cytotoxicity, MTT), 48 hours, sigmoidal dose-response fit
PROPERTY NAME: pIC50
Quick note: pIC50 means taking -log10 of the concentration in moles per liter.

Prompt: Give recorded pIC50 with MM.1R cells for the following compound: N=C(N)NCCC[C@H](NC(=O)CCC(=O)OC[N+]1(c2cc(=O)c3cccc(-c4ccccc4)c3o2)CCOCC1)C(=O)NCC(=O)N[C@@H](CC(=O)O)C(=O)N[C@@H](CO)C(=O)[O-]
Response: 4.93
